Target: Hsp70 ATPase (Homo sapiens, UniProt P0DMV8)
Construct: made in house; host or cells: E. coli
Sequence (P0DMV8 2-641 limits assumed): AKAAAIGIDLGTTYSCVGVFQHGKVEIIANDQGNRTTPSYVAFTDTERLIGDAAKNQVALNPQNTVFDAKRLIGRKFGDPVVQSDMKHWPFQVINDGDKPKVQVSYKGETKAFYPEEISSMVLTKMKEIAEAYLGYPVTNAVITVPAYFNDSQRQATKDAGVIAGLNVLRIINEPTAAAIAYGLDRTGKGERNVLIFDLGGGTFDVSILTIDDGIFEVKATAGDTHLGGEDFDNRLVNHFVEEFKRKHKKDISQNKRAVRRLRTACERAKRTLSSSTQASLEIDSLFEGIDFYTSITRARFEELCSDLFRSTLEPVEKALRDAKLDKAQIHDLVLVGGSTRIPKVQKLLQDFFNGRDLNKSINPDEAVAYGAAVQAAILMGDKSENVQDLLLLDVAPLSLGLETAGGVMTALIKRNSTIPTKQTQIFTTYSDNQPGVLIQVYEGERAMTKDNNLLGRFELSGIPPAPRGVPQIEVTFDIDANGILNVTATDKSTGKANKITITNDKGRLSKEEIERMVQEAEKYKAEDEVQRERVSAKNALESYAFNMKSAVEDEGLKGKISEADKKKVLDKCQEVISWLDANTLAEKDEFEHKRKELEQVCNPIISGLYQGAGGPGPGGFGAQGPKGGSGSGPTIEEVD
Test: Inhibition of Hsp70 ATPase activity (malachite green)
Format: biochemical
Conditions: 200 μM; repeated screening carried out twice; Hsp70/Hsp40, 1 mM ATP; read-out: Inhibitory rate (%) on activity of Hsp70 ATPase
reportedProperty: inhibition at 200 µM (%)
State the answer as a number, implicitly in %.

[ask] Report the value of inhibition at 200 µM obtained on Hsp70 ATPase (Homo sapiens, UniProt P0DMV8) for COc1cc(/C=C/C(=O)NC(NC(=S)Nc2ccccn2)C(C)C)cc(OC)c1OC (centres unmarked) .
[reply] -6.13

[ask] Report the value of inhibition at 200 µM obtained on Hsp70 ATPase (Homo sapiens, UniProt P0DMV8) for COc1cc(/C=C/C(=O)NC(CC(C)(C)C)NC(=S)Nc2ccccn2)cc(OC)c1OC (centres unmarked) .
[reply] 9.36

[ask] Report the value of inhibition at 200 µM obtained on Hsp70 ATPase (Homo sapiens, UniProt P0DMV8) for CC(C)CC(NC(=O)/C=C/c1ccccc1)NC(=S)NC1CCCCC1 (centres unmarked) .
[reply] 58.4

[ask] Report the value of inhibition at 200 µM obtained on Hsp70 ATPase (Homo sapiens, UniProt P0DMV8) for CC(C)C(NC(=O)/C=C/c1ccccc1)NC(=S)Nc1ccccc1 (centres unmarked) .
[reply] -4.2

[ask] Report the value of inhibition at 200 µM obtained on Hsp70 ATPase (Homo sapiens, UniProt P0DMV8) for Cc1ccccc1NC(=S)NC(NC(=O)/C=C/c1ccccc1)C1CC1 (centres unmarked) .
[reply] 65.4

[ask] Report the value of inhibition at 200 µM obtained on Hsp70 ATPase (Homo sapiens, UniProt P0DMV8) for COc1cc(/C=C/C(=O)NC(NC(=S)Nc2ccccn2)C2CC2)cc(OC)c1OC (centres unmarked) .
[reply] -5.66

[ask] Report the value of inhibition at 200 µM obtained on Hsp70 ATPase (Homo sapiens, UniProt P0DMV8) for O=C(/C=C/c1ccccc1)NC(NC(=S)Nc1ccccc1)C1CC1 (centres unmarked) .
[reply] 22.5

[ask] Report the value of inhibition at 200 µM obtained on Hsp70 ATPase (Homo sapiens, UniProt P0DMV8) for COc1cc(/C=C/C(=O)NC(NC(=S)NC2CCCCC2)C(C)C)cc(OC)c1OC (centres unmarked) .
[reply] 24.4

[ask] Report the value of inhibition at 200 µM obtained on Hsp70 ATPase (Homo sapiens, UniProt P0DMV8) for COc1cc(/C=C/C(=O)NC(CC(C)C)NC(=S)Nc2cccnc2)cc(OC)c1OC (centres unmarked) .
[reply] 38.5

[ask] Report the value of inhibition at 200 µM obtained on Hsp70 ATPase (Homo sapiens, UniProt P0DMV8) for O=C(/C=C/c1ccccc1)NC(NC(=S)Nc1ccccn1)C1CC1 (centres unmarked) .
[reply] 1.51

[ask] Report the value of inhibition at 200 µM obtained on Hsp70 ATPase (Homo sapiens, UniProt P0DMV8) for CC(C)(C)C(NC(=O)/C=C/c1ccccc1)NC(=S)NC1CCCCC1 (centres unmarked) .
[reply] 21.4

[ask] Report the value of inhibition at 200 µM obtained on Hsp70 ATPase (Homo sapiens, UniProt P0DMV8) for COc1cc(/C=C/C(=O)NC(NC(=S)Nc2ccccc2C)C(C)(C)C)cc(OC)c1OC (centres unmarked) .
[reply] 50.5

[ask] Report the value of inhibition at 200 µM obtained on Hsp70 ATPase (Homo sapiens, UniProt P0DMV8) for CC(C)CC(NC(=O)/C=C/c1ccccc1)NC(=S)Nc1ccccc1 (centres unmarked) .
[reply] 2.51

[ask] Report the value of inhibition at 200 µM obtained on Hsp70 ATPase (Homo sapiens, UniProt P0DMV8) for Cc1ccccc1NC(=S)NC(CC(C)C)NC(=O)/C=C/c1ccccc1 (centres unmarked) .
[reply] 61.3

[ask] Report the value of inhibition at 200 µM obtained on Hsp70 ATPase (Homo sapiens, UniProt P0DMV8) for Cc1ccccc1NC(=S)NC(NC(=O)/C=C/c1ccccc1)C(C)(C)C (centres unmarked) .
[reply] -0.88

[ask] Report the value of inhibition at 200 µM obtained on Hsp70 ATPase (Homo sapiens, UniProt P0DMV8) for COc1cc(/C=C/C(=O)NC(NC(=S)Nc2cccnc2)C(C)(C)C)cc(OC)c1OC (centres unmarked) .
[reply] 2.17

[ask] Report the value of inhibition at 200 µM obtained on Hsp70 ATPase (Homo sapiens, UniProt P0DMV8) for CC(C)(C)C(NC(=O)/C=C/c1ccccc1)NC(=S)Nc1ccccc1 (centres unmarked) .
[reply] 27.3

[ask] Report the value of inhibition at 200 µM obtained on Hsp70 ATPase (Homo sapiens, UniProt P0DMV8) for COc1cc(/C=C/C(=O)NC(CC(C)C)NC(=S)Nc2ccccn2)cc(OC)c1OC (centres unmarked) .
[reply] 10.5

[ask] Report the value of inhibition at 200 µM obtained on Hsp70 ATPase (Homo sapiens, UniProt P0DMV8) for COc1cc(/C=C/C(=O)NC(NC(=S)Nc2ccccc2)C2CC2)cc(OC)c1OC (centres unmarked) .
[reply] 50.5

[ask] Report the value of inhibition at 200 µM obtained on Hsp70 ATPase (Homo sapiens, UniProt P0DMV8) for COc1cc(/C=C/C(=O)NC(NC(=S)Nc2ccccc2)C(C)(C)C)cc(OC)c1OC (centres unmarked) .
[reply] 4.55

[ask] Report the value of inhibition at 200 µM obtained on Hsp70 ATPase (Homo sapiens, UniProt P0DMV8) for CNC(=S)NC(CC(C)C)NC(=O)/C=C/c1cc(OC)c(OC)c(OC)c1 (centres unmarked) .
[reply] 7.62

[ask] Report the value of inhibition at 200 µM obtained on Hsp70 ATPase (Homo sapiens, UniProt P0DMV8) for Cc1ccccc1NC(=S)NC(CC(C)(C)C)NC(=O)/C=C/c1ccccc1 (centres unmarked) .
[reply] 41

[ask] Report the value of inhibition at 200 µM obtained on Hsp70 ATPase (Homo sapiens, UniProt P0DMV8) for CC(C)(C)CC(NC(=O)/C=C/c1ccccc1)NC(=S)Nc1ccccc1 (centres unmarked) .
[reply] 18.4

[ask] Report the value of inhibition at 200 µM obtained on Hsp70 ATPase (Homo sapiens, UniProt P0DMV8) for COc1cc(/C=C/C(=O)NC(CC(C)(C)C)NC(=S)Nc2ccccc2)cc(OC)c1OC (centres unmarked) .
[reply] 44.1

[ask] Report the value of inhibition at 200 µM obtained on Hsp70 ATPase (Homo sapiens, UniProt P0DMV8) for COc1cc(/C=C/C(=O)NC(NC(=S)Nc2cccnc2)C2CC2)cc(OC)c1OC (centres unmarked) .
[reply] 2.55

[ask] Report the value of inhibition at 200 µM obtained on Hsp70 ATPase (Homo sapiens, UniProt P0DMV8) for COc1cc(/C=C/C(=O)NC(CC(C)C)NC(=S)NC2CCCCC2)cc(OC)c1OC (centres unmarked) .
[reply] 46.2

[ask] Report the value of inhibition at 200 µM obtained on Hsp70 ATPase (Homo sapiens, UniProt P0DMV8) for COc1cc(/C=C/C(=O)NC(NC(=S)Nc2ccccc2C)C2CC2)cc(OC)c1OC (centres unmarked) .
[reply] 19.3

[ask] Report the value of inhibition at 200 µM obtained on Hsp70 ATPase (Homo sapiens, UniProt P0DMV8) for COc1cc(/C=C/C(=O)NC(CC(C)(C)C)NC(=S)Nc2cccnc2)cc(OC)c1OC (centres unmarked) .
[reply] 47.1

[ask] Report the value of inhibition at 200 µM obtained on Hsp70 ATPase (Homo sapiens, UniProt P0DMV8) for COc1cc(/C=C/C(=O)NC(CC(C)C)NC(=S)Nc2ccccc2)cc(OC)c1OC (centres unmarked) .
[reply] 50.4

[ask] Report the value of inhibition at 200 µM obtained on Hsp70 ATPase (Homo sapiens, UniProt P0DMV8) for COc1cc(/C=C/C(=O)NC(NC(=S)NC2CCCCC2)C(C)(C)C)cc(OC)c1OC (centres unmarked) .
[reply] 35.8

[ask] Report the value of inhibition at 200 µM obtained on Hsp70 ATPase (Homo sapiens, UniProt P0DMV8) for CC(C)C(NC(=O)/C=C/c1ccccc1)NC(=S)NC1CCCCC1 (centres unmarked) .
[reply] 25.9

[ask] Report the value of inhibition at 200 µM obtained on Hsp70 ATPase (Homo sapiens, UniProt P0DMV8) for COc1ccc(NC(=S)NC(NC(=O)/C=C/c2cc(OC)c(OC)c(OC)c2)C(C)C)cc1 (centres unmarked) .
[reply] 28.8

Source: patent US9718770B2
